Data credit: the supplement of paper PMC10065799

Listed sequences paired with reported phosphorylation enrichment
target: EPHB2 (UniProt P29323); assay: phosphorylation enrichment, bacterial display (enrichment ratio); higher = better substrate or ligand; peptides without Tyr show the background
Sequence (P29323 whole entry, looked up): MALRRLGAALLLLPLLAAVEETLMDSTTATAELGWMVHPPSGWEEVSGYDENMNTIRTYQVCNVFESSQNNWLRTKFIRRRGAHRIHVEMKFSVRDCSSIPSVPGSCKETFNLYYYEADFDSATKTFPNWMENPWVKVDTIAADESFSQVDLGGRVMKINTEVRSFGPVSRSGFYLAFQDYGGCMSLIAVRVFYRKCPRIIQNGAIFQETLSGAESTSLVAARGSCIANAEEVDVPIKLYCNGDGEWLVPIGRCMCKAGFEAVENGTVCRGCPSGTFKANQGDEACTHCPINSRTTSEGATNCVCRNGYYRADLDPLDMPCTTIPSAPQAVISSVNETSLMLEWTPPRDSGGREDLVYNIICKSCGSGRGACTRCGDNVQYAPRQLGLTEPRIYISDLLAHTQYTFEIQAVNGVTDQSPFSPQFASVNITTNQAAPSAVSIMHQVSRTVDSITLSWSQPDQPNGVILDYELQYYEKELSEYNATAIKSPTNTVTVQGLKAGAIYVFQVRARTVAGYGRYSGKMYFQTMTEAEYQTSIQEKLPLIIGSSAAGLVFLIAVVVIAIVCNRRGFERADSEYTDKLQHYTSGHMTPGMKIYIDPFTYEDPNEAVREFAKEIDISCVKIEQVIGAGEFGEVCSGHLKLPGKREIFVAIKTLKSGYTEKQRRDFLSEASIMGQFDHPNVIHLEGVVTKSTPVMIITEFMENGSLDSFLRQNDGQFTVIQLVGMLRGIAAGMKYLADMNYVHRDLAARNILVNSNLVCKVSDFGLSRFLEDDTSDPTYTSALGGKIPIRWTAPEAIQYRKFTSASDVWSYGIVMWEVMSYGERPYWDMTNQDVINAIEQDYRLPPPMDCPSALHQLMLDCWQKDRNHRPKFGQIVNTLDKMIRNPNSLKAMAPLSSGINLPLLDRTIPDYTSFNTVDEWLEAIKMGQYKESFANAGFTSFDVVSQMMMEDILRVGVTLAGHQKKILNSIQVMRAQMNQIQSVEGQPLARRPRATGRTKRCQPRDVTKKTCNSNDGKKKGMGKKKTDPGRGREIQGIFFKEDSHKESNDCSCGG

GYAGKYIAMVM [CYP19A1_Y441_C437Y] : 0.483

Attention now shifts to the item below.
phosphorylation enrichment reported for this sequence YETVKYINNER [ABCB7_Y345_F346I] : 0.623

---

biological target: FGFR3 (UniProt P22607); experiment: phosphorylation enrichment, bacterial display (enrichment ratio); higher = better substrate or ligand; peptides without Tyr show the background
Sequence (P22607 whole entry, looked up): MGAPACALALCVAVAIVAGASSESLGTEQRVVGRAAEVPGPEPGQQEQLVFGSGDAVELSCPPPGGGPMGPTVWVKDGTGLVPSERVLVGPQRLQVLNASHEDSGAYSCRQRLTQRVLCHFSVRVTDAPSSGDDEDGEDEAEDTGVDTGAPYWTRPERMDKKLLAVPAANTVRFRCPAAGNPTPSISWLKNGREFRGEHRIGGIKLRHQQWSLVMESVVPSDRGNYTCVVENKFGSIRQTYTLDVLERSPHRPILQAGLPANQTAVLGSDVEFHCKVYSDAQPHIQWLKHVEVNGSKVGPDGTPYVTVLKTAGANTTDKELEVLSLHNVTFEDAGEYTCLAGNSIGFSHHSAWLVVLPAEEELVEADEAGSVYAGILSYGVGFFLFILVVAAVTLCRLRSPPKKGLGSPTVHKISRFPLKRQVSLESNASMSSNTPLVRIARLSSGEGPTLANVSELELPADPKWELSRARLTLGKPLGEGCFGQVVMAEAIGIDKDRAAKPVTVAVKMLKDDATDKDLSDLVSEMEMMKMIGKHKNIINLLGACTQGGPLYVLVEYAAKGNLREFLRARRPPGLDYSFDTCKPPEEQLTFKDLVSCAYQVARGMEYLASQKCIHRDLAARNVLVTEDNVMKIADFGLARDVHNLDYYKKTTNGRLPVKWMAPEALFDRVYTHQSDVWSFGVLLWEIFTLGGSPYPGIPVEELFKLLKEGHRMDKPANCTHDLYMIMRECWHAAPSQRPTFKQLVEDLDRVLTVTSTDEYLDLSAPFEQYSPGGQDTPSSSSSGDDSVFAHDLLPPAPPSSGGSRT
READOUT NAME: phosphorylation enrichment
Enter the number alone.

Worked examples follow.
GTTIHYNYMCN [TP53_Y234_C229G] : 0.973
HRTLVYGGIFL [FBP1_Y259] : 1.01
LINSVYGCSRQ [TMPRSS6_Y290_T287N] : 0.974

// recorded phosphorylation enrichment for LAVVDYIRRQK [ATM_Y1915_M1916I] : 0.92

---

biological target: c-Src SH2; experiment: SH2 binding enrichment of the phosphorylated peptide, bacterial display (enrichment ratio); higher = better substrate or ligand; peptides without Tyr show the background
READOUT NAME: SH2 binding enrichment
Number, no unit, nothing else.

GPIFRYDSGGA [CYP11B1_Y81_L83S] : 0.543

According to the records, this sequence FLEEEYVKAVG [TF_Y674_G671E_YF] displays SH2 binding enrichment of 0.569

# SH2 binding enrichment of TQRPYYKGGGG [TYROBP_Y112] = 0.93

---

target: c-Src SH2; assay: SH2 binding enrichment of the phosphorylated peptide, bacterial display (enrichment ratio); higher = better substrate or ligand; peptides without Tyr show the background
Entry class follows SH2 binding enrichment: lower band (below 0.5), central band (0.5 to below 0.8), upper band (0.8 or more)

Example entries and their recorded answers appear below.
YRQNVYIPGSN [PCDHGA1_Y895] : lower band
LREIRYQGGNR [VWF_Y1570_V1565L] : lower band
PMWHPYKADVT [TP53TG5_Y255_V257A] : lower band

## Input Which class holds ADNQRYAFMPL [TMEM87B_Y460_N456D] ?
## Output upper band

---

biological target: Fyn (UniProt P06241); experiment: phosphorylation enrichment, bacterial display (enrichment ratio); higher = better substrate or ligand; peptides without Tyr show the background
Sequence (P06241 whole entry, looked up): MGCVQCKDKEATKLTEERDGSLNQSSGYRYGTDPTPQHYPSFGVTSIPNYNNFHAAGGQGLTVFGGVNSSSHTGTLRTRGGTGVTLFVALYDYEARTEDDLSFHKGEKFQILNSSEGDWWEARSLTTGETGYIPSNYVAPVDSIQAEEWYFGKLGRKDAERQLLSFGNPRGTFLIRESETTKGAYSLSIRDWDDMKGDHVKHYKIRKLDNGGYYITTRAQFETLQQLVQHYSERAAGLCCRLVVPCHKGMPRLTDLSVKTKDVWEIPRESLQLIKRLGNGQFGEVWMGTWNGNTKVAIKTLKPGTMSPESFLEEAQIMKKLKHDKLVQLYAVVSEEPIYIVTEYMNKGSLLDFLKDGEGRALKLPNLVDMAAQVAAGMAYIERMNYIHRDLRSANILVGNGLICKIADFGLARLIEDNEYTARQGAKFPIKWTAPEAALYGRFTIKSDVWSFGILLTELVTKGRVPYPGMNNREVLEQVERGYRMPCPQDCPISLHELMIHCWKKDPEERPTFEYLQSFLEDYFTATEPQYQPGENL
Use 0.5 as the dividing line for phosphorylation enrichment, with the line itself on the T side and lower values as F.

## Input phosphorylation enrichment >= 0.5 for SGDDGYAKDAK [TENM4_Y1530] ?
## Output T

## Input Does SGPRRYNIAAL [TTR_Y125_T126N] have a reported phosphorylation enrichment of at least 0.5?
## Output F

## Input Dear colleague, could you confirm whether SVTGTYSPALN [TP53_Y126_C124G] has phosphorylation enrichment at or above 0.5?
## Output T

## Input Hello, I need to know if LVMFIYAIFGM [SCN1A_Y1684] has measured phosphorylation enrichment not below 0.5. Thanks!
## Output T

## Input Say whether AEEKEYHAEGG [EGFR_Y869] shows phosphorylation enrichment of 0.5 or more.
## Output T

## Input Does AFLQTYSHEVS [PCDHGA5_Y753] have a reported phosphorylation enrichment of at least 0.5?
## Output T

## Input Tell me whether phosphorylation enrichment is at least 0.5 here: DAANNYARGHY [TUBA3E_Y103_S101N]
## Output F

---

target: EPHB1 (UniProt P54762); assay: phosphorylation enrichment, bacterial display (enrichment ratio); higher = better substrate or ligand; peptides without Tyr show the background
Sequence (P54762 whole entry, looked up): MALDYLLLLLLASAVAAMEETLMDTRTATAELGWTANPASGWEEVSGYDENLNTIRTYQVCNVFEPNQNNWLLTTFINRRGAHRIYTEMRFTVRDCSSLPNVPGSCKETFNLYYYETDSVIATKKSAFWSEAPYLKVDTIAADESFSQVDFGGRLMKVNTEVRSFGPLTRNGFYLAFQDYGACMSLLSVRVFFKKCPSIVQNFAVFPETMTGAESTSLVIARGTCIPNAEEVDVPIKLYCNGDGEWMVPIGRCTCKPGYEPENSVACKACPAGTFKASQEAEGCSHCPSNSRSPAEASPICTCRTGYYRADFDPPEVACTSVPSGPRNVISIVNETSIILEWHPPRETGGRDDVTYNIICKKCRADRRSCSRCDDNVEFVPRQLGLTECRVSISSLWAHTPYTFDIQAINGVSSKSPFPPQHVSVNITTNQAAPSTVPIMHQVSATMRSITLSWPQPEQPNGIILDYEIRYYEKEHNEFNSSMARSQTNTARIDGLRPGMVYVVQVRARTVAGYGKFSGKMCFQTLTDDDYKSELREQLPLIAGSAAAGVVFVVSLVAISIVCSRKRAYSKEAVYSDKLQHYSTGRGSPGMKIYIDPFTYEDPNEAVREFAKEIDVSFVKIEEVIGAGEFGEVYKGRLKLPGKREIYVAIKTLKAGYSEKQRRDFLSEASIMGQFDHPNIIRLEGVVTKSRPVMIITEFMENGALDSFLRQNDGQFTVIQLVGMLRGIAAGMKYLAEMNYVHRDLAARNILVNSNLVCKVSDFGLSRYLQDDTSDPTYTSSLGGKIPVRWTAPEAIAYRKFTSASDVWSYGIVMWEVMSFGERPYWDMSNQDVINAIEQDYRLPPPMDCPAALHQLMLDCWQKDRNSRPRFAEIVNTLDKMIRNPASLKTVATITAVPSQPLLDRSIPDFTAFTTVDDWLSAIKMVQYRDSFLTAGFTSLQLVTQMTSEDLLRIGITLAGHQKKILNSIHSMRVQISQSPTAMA
READOUT NAME: phosphorylation enrichment
Answer field: number only, no words.

ISHVAYCVLGK [TRRAP_Y892_R893C] : 0.731
RSDEDYLFREE [POR_Y573_YF] : 0.865

Field: next sequence
Item: WNGDKYAATTT [TRIM39_Y439] | System: EPHB1 (UniProt P54762) | phosphorylation enrichment: 0.462

---

target: FGFR3 (UniProt P22607); test: phosphorylation enrichment, bacterial display (enrichment ratio); higher = better substrate or ligand; peptides without Tyr show the background
Rule: phosphorylation enrichment under 1 gives not satisfied, otherwise satisfied.

CLAKMYYSAVD [CP_Y539] : not satisfied
LLKKIYLMLDN [STAT1_Y203_M202I] : satisfied
PLDGEYFTLQI [TP53_Y327] : satisfied
RGYRVCYTPDS [PTPRF_Y450_Y450C] : satisfied
SDVSSYLEGQA [GCG_Y110] : not satisfied

## Input Quick check, phosphorylation enrichment >= 1? NYADPYRQLQY [CTNND2_Y503]
## Output satisfied

## Input hey, is phosphorylation enrichment for this one >= 1? DVCKKYAEAKD [ALB_Y343_N342K]
## Output not satisfied

## Input Check the entry NTTIHYNYMCN [TP53_Y234_C229N] : does phosphorylation enrichment equal or exceed 1?
## Output not satisfied

## Input Hello, I need to know if QNTADYYDLYG [PTPN11_Y62_G60A] has measured phosphorylation enrichment not below 1. Thanks!
## Output satisfied

## Input Has QEGPEYWDLET [HLA-A_Y83_Q86L] a recorded phosphorylation enrichment greater than or equal to 1?
## Output satisfied

## Input Could you please find out whether KFVKMCDNHQL [MYO9A_Y203_Y203C_YF] has phosphorylation enrichment that meets 1 or exceeds it?
## Output not satisfied

---

molecular target: c-Src SH2; experiment: SH2 binding enrichment of the phosphorylated peptide, bacterial display (enrichment ratio); higher = better substrate or ligand; peptides without Tyr show the background;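 further: peptide library displayed on the E. coli surface as eCPX fusions, selected cells deep-sequenced, score is each peptide's frequency after selection divided by its frequency in the input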
sequences and their reported SH2 binding enrichment
Give the figure by itself; no unit, no explanation.

KSRQIYDAYIM [GRK3_Y109_R104K] : 0.683
TLLPDYEDEEE [ZNF830_Y159_S154T] : 0.635
PSPTRYSLSPS [RANBP2_Y785] : 0.438
FLQTDDTSQVS [FRMPD1_Y846_Y846D] : 0.457
NPIGLYSAETL [LDB3_Y202] : 0.486

SH2 binding enrichment reported for this sequence QGCGIYKDFFR [PLA2G2D_Y82_S80G_YF] : 0.753

SH2 binding enrichment reading for FSGDFYRIQGR [DDR2_Y741_YF] : 0.501

// field: SH2 binding enrichment; key: HFMELYDLNRD [BBS2_Y648_R643H_YF] ; value = 0.654

GET /value?item= QGQHWYSSSDK [CASP10_Y9] &field=SH2 binding enrichment returns 1.21

---

This section presents sequences with their documented phosphorylation enrichment values.
biological target: FGFR1 (UniProt P11362); assay: phosphorylation enrichment, bacterial display (enrichment ratio); higher = better substrate or ligand; peptides without Tyr show the background
Sequence (P11362 whole entry, looked up): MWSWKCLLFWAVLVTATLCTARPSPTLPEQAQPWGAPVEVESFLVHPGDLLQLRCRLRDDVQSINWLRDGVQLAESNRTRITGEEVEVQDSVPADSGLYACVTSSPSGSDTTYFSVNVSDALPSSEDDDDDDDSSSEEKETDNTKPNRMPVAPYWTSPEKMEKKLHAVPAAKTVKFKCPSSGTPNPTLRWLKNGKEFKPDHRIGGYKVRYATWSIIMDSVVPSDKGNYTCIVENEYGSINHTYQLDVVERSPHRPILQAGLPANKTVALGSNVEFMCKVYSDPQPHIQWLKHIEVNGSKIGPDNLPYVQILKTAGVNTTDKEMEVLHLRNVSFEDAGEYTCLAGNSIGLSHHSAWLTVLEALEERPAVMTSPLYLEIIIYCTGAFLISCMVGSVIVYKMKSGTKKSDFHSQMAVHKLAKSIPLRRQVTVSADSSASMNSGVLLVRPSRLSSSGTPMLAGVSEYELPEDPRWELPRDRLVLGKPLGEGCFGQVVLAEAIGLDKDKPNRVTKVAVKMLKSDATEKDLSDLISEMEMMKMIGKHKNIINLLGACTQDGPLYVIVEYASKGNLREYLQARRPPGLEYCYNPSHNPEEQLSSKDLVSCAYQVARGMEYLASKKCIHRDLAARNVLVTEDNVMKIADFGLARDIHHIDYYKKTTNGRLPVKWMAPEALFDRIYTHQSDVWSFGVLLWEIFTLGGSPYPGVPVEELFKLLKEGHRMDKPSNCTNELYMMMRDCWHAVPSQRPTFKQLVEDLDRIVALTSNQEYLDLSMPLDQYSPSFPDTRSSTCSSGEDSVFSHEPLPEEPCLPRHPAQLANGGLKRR
Answer with a bare number; do not write a unit.

Solved entries:
SGPRRYNIAAL [TTR_Y125_T126N] : 0.505
PDNKPYIFKVF [PIK3AP1_Y553_E551K] : 0.681
YSNVLYRPRGP [TMIGD2_Y197_A202P] : 0.685
IDSTPYRQWFE [RPS8_Y109_YF] : 0.494

So for QGCGIYKDFFR [PLA2G2D_Y82_S80G_YF] , the logged phosphorylation enrichment turned out to be 0.7

---

molecular target: FGFR1 (UniProt P11362); assay: phosphorylation enrichment, bacterial display (enrichment ratio); higher = better substrate or ligand; peptides without Tyr show the background
READOUT NAME: phosphorylation enrichment
Write the value as a bare number.

DFTEAYNSKIK [CLK1_Y305_P307S_YF] : 0.592

Form field phosphorylation enrichment for item LRYDSYWSYCN [SLC20A2_Y433_S434W] on FGFR1 (UniProt P11362): 3.88

Lab note: sequence CTTIHDNYMCN [TP53_Y234_Y234D] tested on FGFR1 (UniProt P11362); recorded phosphorylation enrichment was 0.541

GET /values?item= VNNAVYGIDAM [EIF3J_Y143] &system= FGFR1 (UniProt P11362) returns phosphorylation enrichment: 0.506

---

test system: Fer (mouse); test: phosphorylation enrichment, bacterial display (enrichment ratio); higher = better substrate or ligand; peptides without Tyr show the background
Would you mind labelling by phosphorylation enrichment? At or over 0.6 is Yes, under is No.

LRGVIYVILRK [PMP22_Y153_S149R] : No
GPQSLYNGLVA [UCP2_Y79_R76Q] : No
LGQRIYQYIQS [DYRK1B_Y271] : Yes
RAVLLYEFVGK [NATD1_Y45_YF] : Yes

Now for a further sequence.
## Input Say whether AKKVFYVIETR [SHH_Y253] shows phosphorylation enrichment of 0.6 or more.
## Output No

---

test system: Fer (mouse); test: phosphorylation enrichment, bacterial display (enrichment ratio); higher = better substrate or ligand; peptides without Tyr show the background
Quick reference for phosphorylation enrichment among some sequences
Please respond with just the number, no unit label.

In the examples that follow, each entry is paired with its recorded phosphorylation enrichment.
QPGTDYKIFLF [FN1_Y1970_YF] : 0.899
QAYSWYQHQRA [NDST1_Y714_R709Q] : 6.78
IDNKMYDPKMN [ENPP1_Y280] : 0.355

Sample TQPSPYAVYLF [RPGRIP1_Y823_R827L] ; phosphorylation enrichment observed: 7.18
